Target: T1, recombinant C-terminally truncated RSV (A2 strain) F protein (RSV (A2 strain), UniProt P03420 26-524)
T1 construct: extracellular domain; also called truncated F protein; extracellular domain of the F protein from RSV A2
T1 sequence (P03420 26-109, chain 1 of 2): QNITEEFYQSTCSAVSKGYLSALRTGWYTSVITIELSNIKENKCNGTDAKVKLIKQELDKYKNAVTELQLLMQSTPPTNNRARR
T1 sequence (P03420 137-524, chain 2 of 2): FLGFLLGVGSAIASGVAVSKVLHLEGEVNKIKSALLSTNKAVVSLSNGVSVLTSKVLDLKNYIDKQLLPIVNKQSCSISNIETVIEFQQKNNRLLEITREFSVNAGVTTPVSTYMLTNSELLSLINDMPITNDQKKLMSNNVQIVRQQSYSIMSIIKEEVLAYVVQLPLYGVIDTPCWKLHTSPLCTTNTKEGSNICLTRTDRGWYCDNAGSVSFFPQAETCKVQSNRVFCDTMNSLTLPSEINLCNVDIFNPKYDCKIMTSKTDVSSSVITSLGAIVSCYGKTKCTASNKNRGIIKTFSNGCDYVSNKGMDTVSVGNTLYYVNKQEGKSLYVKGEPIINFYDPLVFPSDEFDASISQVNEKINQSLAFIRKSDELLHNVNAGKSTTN
Test: SPR (BIAcore), Fab over immobilised F
PROPERTY_MEASURED: koff
Record the result as number plus unit.

Query: Give a short answer stating reported koff for A17f5 Fab (Fab, V domains shown) VH: QVTLRESGPALVKPTQTLTLTCTFSGFSLSTAGMSVGWIRQPPGKALEWLADIWWDDKKDYNPSLKDRLTISKDTSKNQVVLKVTNMDPADTATYYCARDMIFNWYFDVWGQGTTVTVSS VL: DIQMTQSPSTLSASVGDRVTITCSLSSRVGYMHWYQQKPGKAPKLLIYDTFRHTSGVPSRFSGSGSGTEFTLTISSLQPDDFATYYCFQGSGYPFTFGGGTKVEIK .
Response: 8.4e-05 s⁻¹
